Give measured inhibition for each item. Keep answers brief.
Assay Overview: APP 5'UTR translational reporter suppression – APP 5'UTR luciferase, SH-SY5Y cells, primary screen (AID 1285)
Run Conditions: SH-SY5Y APP 5'UTR-luciferase reporter, luminescence; at 2 µM; stronger effect = higher value
Out of some 190,000 compounds screened, about 1,600 (0.84%) were called active. For the sample, actives were picked, then their nearest neighbours and some compounds at random.
Answers are plain numbers, in %.

COc1ccc(CC(=O)N/N=C(\C)c2ccccn2)cc1    23.4
CCCOC(=O)c1[nH]c2c(c1C)C(=O)CC(c1cc(OC)c(OC)c(OC)c1)C2 (stereo not given)    -2.1
CCOC(=O)c1[nH]c2c(c1C)C(=O)CC(c1ccc(N(C)C)cc1)C2 (stereo not given)    -13.3
O=C(CCN1C(=O)c2ccccc2C1=O)NNC(=O)c1ccc(Cl)cc1Cl    -9.9

// next entry
Exam item: Given COc1cc2nc(CN(C)Cc3ccc(F)cc3)[nH]c(=O)c2cc1OC , state its recorded inhibition.
Marked response: -10.3

* * *

Assay Overview: APP 5'UTR translational reporter suppression – APP 5'UTR luciferase, SH-SY5Y cells, primary screen (AID 1285)
Run Conditions: SH-SY5Y APP 5'UTR-luciferase reporter, luminescence; at 2 µM; stronger effect = higher value
The whole screen tested about 190,000 compounds, of which about 1,600 (0.84%) were called active. This excerpt belongs to a sample that is enriched for actives.
Observed Property: inhibition (%)
One number for each entry, in %.

Worked cases, inhibition given:
CCOC(=O)c1cnc(-n2nc(C)cc2C)nc1NNc1cc(C)nc(-c2ccccc2)n1    72.1
CN(C(=O)CSc1nnc(N)s1)c1c(N)n(Cc2ccccc2)c(=O)[nH]c1=O    -12.7
CC(=O)N1CCN(S(=O)(=O)c2cccc(C(=O)NC3CCC(C)CC3)c2)CC1 (centres undefined)    2.6
O=c1cc(-c2ccccc2)[nH]c2cc(F)ccc12    89.6
Nc1nnc(SCC(=O)OCc2ccc(Cl)c(Cl)c2)s1    86.8
CC(=O)Nc1ccc(Nc2c3ccccc3nc3ccccc23)cc1    92.3

Provide inhibition values for the following items, in order.
1. Cc1ccc(-c2cc(=O)c3ccc(F)cc3[nH]2)cc1
2. COC(=O)c1ccc(CSc2nnc(N)s2)o1
3. CCOc1cc(N2CCOCC2)c(OCC)cc1NC(=O)C1=NN(c2cccc(C)c2)C(=O)CC1
4. CN(C)c1ccc(Nc2c3c4c(cccc4n(C)c2=O)C(=O)c2ccccc2-3)cc1
5. COc1ccc(NC(=O)COC(=O)CNC(=O)C2CCCCC2)cc1

Marked response:
1: -29.4; 2: -10.2; 3: -5.2; 4: 55.2; 5: -10.5

Please state inhibition for every compound in the list that follows.
1. CN1CCC(OC(=O)COc2ccc(Cl)cc2Cl)CC1
2. CCOC(=O)c1cnc(-n2nc(C)cc2C)nc1Nc1cccc(C(C)=O)c1
3. CCOC(=O)c1cnc(-n2nc(C)cc2C)nc1-n1nc(C)cc1C
4. Cc1ccc(-c2cc(=O)c3ccc(Cl)cc3[nH]2)cc1
5. O=C(COC(=O)c1cc(-c2cccs2)nn1-c1ccccc1)Nc1cc([N+](=O)[O-])ccc1Cl
6. Cc1ccc(S(=O)(=O)C2C(=O)NC3(C)CC2c2ccccc2O3)cc1 (centres undefined)
7. C/C=C/c1ccc(OCC(O)CN2CCCCCCC2)c(OC)c1 (centres undefined)

Marked response:
1. -5.1
2. -11.9
3. 6
4. -13.4
5. -13.5
6. -1.5
7. -39

Please supply inhibition for each of the following items, keeping them in order.
1. CCN(CC)S(=O)(=O)c1ccc(N2CCCC2)c(NS(=O)(=O)c2cccs2)c1
2. CSc1ccc(C(=O)C2CCCN(C(=O)c3ccc(C)nc3)C2)cc1 (centres undefined)
3. CC1=NCCN1S(=O)(=O)c1cccc([N+](=O)[O-])c1
4. O=C(Nc1ccc2c(c1)OCO2)c1sc2cc(Cl)ccc2c1Cl
5. Cc1ccc(S(=O)(=O)N(C)c2ccc(OCC(=O)NC3=NCCS3)cc2)cc1
6. CC(=O)Nc1ccc(NC(=O)COc2ncnc3ccccc23)cc1

Marked response:
1. 7.7
2. -16.6
3. 11.4
4. -85
5. -2.9
6. 0.3

The values you see were collected from PubChem BioAssay AID1285.
